# target: UniProtKB P00918

| molecule.smiles | unit.of.measurement | Ki |
| --- | --- | --- |
| NS(=O)(=O)c1ccc(OCCCCCO[N+](=O)[O-])cc1 | nM | 71 |
| NS(=O)(=O)c1ccc(OCCCCO[N+](=O)[O-])cc1 | nM | 12 |
| NS(=O)(=O)c1nnc(NS(=O)(=O)c2ccc(C(=O)OCCCCO[N+](=O)[O-])cc2)s1 | nM | 10 |
| COc1cc(/C=C/C(=O)OCCCCO[N+](=O)[O-])ccc1OC(=O)c1cccc(S(=O)(=O)Nc2nnc(S(N)(=O)=O)s2)c1 | nM | 33 |
| COc1cc(/C=C/C(=O)OCCCCO[N+](=O)[O-])ccc1OC(=O)c1ccc(S(=O)(=O)Nc2nnc(S(N)(=O)=O)s2)cc1 | nM | 14 |
| COc1cc(/C=C/C(=O)OCCCCO[N+](=O)[O-])ccc1OC(=O)c1ccc(S(N)(=O)=O)cc1 | nM | 10 |

====

# target: Carbonic anhydrase 4 (Homo sapiens)
# Sequence (P22748 whole entry): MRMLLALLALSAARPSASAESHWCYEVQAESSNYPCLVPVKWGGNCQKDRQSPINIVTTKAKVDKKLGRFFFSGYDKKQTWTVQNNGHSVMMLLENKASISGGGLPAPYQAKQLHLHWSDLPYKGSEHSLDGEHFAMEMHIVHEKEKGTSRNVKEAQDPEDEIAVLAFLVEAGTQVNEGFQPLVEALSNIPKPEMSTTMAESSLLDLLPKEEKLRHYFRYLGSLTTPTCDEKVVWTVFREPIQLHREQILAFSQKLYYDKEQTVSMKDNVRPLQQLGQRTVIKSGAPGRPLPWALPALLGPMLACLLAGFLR
pKi: −log10 of the molar value.
Here the recorded pKi is given for each entry.
property: pKi

| molecule.smiles | val |
| --- | --- |
| NS(=O)(=O)c1ccc(OCCCO[N+](=O)[O-])cc1 | 6.83 |
| NS(=O)(=O)c1ccc(OCCCCCO[N+](=O)[O-])cc1 | 7.05 |
| NS(=O)(=O)c1nnc(NS(=O)(=O)c2cccc(C(=O)OCCCCO[N+](=O)[O-])c2)s1 | 6.81 |
| NS(=O)(=O)c1nnc(NS(=O)(=O)c2ccc(C(=O)OCCCCO[N+](=O)[O-])cc2)s1 | 7.34 |
| NS(=O)(=O)c1ccc(C(=O)OCc2ccc(CO[N+](=O)[O-])cc2)cc1 | 6.46 |

====

# target: Carbonic anhydrase 9 (Homo sapiens, UniProt Q16790)
Label key: yes means Ki under 80 nM; no means Ki of 80 nM or more.

| molecule.smiles | category.label |
| --- | --- |
| NS(=O)(=O)c1ccc(C(=O)OCc2ccc(CO[N+](=O)[O-])cc2)cc1 | no |
| NS(=O)(=O)c1nnc(NS(=O)(=O)c2cccc(C(=O)OCCCCO[N+](=O)[O-])c2)s1 | no |
| COc1cc(/C=C/C(=O)OCCCCO[N+](=O)[O-])ccc1OC(=O)CCc1ccc(S(N)(=O)=O)cc1 | no |
| COc1cc(/C=C/C(=O)OCCCCO[N+](=O)[O-])ccc1OC(=O)c1ccc(S(=O)(=O)Nc2nnc(S(N)(=O)=O)s2)cc1 | yes |
| NS(=O)(=O)c1ccc(OCCCCCO[N+](=O)[O-])cc1 | no |

====

# target: Carbonic anhydrase 1 (Homo sapiens)
# Sequence (P00915 whole entry): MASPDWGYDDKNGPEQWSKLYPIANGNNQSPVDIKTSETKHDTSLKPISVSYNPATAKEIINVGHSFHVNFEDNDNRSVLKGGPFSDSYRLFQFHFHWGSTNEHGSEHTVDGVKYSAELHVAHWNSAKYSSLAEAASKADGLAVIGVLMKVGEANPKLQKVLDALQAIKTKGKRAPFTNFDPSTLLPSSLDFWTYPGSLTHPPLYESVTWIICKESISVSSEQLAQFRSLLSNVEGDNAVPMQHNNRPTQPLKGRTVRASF
Consider the cut-off 40 nM. If the recorded Ki is strictly smaller, the label is satisfied; if not, the label is not satisfied.

| molecule.smiles | category.label |
| --- | --- |
| NS(=O)(=O)c1ccc(C(=O)OCCCCO[N+](=O)[O-])cc1 | not satisfied |
| NS(=O)(=O)c1ccc(OCCCCCO[N+](=O)[O-])cc1 | not satisfied |
| COc1cc(/C=C/C(=O)OCCCCO[N+](=O)[O-])ccc1OC(=O)CCc1ccc(S(N)(=O)=O)cc1 | not satisfied |
| NS(=O)(=O)c1nnc(NS(=O)(=O)c2ccc(C(=O)OCCCCO[N+](=O)[O-])cc2)s1 | satisfied |
